Target: T1, recombinant human TL1A (human, UniProt O95150 71-251)
T1 chain: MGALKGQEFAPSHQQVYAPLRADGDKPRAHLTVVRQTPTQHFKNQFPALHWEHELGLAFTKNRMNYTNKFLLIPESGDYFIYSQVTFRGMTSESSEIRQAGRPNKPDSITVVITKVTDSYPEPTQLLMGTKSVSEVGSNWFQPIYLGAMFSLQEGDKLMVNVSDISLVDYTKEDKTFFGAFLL
Assay: cell-based or functional assay
test_readout: TF-1 NF-κB reporter cell bioassay, Bioactivity relative to TL1A-0002 (fold)
Your answer should be a plain number; it is taken to be in fold.

TL1A-0263 (antibody, human IgG1, kappa, V domains shown, human IgG1 effector-function-minimized/kappa) VH: QVQLVQSGAEVKKPGASVKVSCKASGYDYTYYGISWVRQAPGQGLEWMGWISTYNTGTHYAQKLQGRVTMTTDTSTSTAYMELRSLRSDDTAVYYCARESYYGSGAHRGGMDVWGQGTTVTVSS VL: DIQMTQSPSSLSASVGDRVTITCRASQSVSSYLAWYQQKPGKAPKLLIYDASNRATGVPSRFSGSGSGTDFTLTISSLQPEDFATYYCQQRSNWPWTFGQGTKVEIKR | 1.2
TL1A-0292 (antibody, human IgG1, kappa, V domains shown, human IgG1 effector-function-minimized/kappa) VH: QVQLVQSGAEVKKPGASVKVSCKASGYDFTYYGVSWVRQAPGQGLEWMGWISTYNTVTHYAPSLQGRVTMTTDTSTSTAYMELRSLRSDDTAVYYCARESYYGSGAFRGGMDVWGQGTTVTVSS VL: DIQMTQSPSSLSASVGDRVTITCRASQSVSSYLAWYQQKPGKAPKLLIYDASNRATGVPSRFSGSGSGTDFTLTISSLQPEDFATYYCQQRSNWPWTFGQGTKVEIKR | 2.2

**Q:** Given the entry TL1A-0002 (antibody, human IgG1, kappa, V domains shown, human IgG1 effector-function-minimized/kappa; also called parental TL1A-0002) VH: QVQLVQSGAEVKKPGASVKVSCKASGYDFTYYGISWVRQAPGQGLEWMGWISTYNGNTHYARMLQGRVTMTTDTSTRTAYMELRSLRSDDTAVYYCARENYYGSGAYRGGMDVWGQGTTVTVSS VL: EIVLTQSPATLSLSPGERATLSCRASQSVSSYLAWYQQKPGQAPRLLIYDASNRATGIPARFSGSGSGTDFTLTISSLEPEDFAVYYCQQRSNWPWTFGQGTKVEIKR , report its measured TF-1 NF-κB reporter cell bioassay, Bioactivity relative to TL1A-0002.
**A:** 1
